tgt: Epidermal growth factor receptor (Homo sapiens, UniProt P00533, L858R)
Sequence (P00533 25-1210 L858R limits assumed): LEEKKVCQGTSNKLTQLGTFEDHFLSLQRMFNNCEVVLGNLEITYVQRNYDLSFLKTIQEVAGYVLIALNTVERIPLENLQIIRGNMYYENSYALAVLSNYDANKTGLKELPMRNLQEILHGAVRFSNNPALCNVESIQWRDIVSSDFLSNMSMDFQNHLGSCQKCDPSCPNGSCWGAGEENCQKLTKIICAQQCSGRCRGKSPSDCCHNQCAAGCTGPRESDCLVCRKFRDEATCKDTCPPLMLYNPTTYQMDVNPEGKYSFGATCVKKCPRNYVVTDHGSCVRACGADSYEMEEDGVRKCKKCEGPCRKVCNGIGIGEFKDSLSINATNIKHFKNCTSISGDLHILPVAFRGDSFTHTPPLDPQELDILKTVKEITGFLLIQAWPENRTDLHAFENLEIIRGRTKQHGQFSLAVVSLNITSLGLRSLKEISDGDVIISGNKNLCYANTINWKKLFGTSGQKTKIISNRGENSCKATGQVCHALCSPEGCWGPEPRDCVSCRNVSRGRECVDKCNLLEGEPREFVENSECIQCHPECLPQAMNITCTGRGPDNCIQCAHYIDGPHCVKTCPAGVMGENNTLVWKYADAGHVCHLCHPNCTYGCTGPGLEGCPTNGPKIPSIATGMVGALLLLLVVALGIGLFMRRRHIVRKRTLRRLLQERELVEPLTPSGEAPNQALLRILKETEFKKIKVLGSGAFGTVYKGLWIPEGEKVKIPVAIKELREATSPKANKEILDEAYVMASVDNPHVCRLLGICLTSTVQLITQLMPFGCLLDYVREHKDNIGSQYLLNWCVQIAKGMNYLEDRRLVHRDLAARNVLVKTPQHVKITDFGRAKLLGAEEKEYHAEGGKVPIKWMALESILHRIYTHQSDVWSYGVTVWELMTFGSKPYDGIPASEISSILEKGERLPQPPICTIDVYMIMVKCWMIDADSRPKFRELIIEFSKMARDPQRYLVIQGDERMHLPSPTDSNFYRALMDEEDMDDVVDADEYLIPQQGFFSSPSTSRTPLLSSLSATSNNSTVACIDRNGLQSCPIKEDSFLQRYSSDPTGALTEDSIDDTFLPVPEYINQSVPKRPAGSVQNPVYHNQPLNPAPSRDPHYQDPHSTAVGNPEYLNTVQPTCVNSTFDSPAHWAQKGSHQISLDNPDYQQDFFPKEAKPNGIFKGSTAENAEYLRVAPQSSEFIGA
experimentalDetails: Inhibition of N-terminal 6x-HIS-tagged human recombinant EGFR (696 to 1022 residues) L858R mutant expressed in Sf9 cells pre-incubated for 90 mins followed by 10 uM ATP addition by HTRF assay
Task for the reader: assign each of the following compounds its reported pIC50.
Scale: pIC50 equals -log10([C]), with [C] in mol/L.

The compound identified as "O=C(Nc1nc2ccccc2n1[C@H]1CC[C@H](O)CC1)c1cccc(C(F)(F)F)c1" registered its pIC50 at 5.70

The compound identified as "Cc1cccc2c1nc(NC(=O)c1cccc(C(F)(F)F)c1)n2[C@H]1CC[C@H](O)CC1" registered its pIC50 at 4.93

The compound identified as "Cc1cccc2nc(NC(=O)c3cccc(C(F)(F)F)c3)n([C@H]3CC[C@H](O)CC3)c12" registered its pIC50 at 6.17

The compound identified as "CCOCc1ccc2c(c1)nc(NC(=O)c1cccc(C(F)(F)F)c1)n2[C@H]1CC[C@H](O)CC1" registered its pIC50 at 5.68
